test system: SKOV3; experiment: Primary qHTS to identify gynecologic anti-cancer compounds using libraries of approved drugs and bioactive compounds (AID 1345084); settings: Gynecologic cancer cell panel viability, ATPlite luminescence, 48 h; series mostly up to 57.5 µM; also: nearly all actives have a fitted effect of over 55% in size
Records with an inconclusive call do not appear. The source made the active and inactive calls. Calls follow the shape of the dose curve; as a rule, active = well fitted cell-killing curve with a large enough effect; inconclusive = small, poorly fitted or top-dose-only effect, or effect the other way; inactive = flat fitted curve, though single readings scatter.
Labels: Y = active, N = inactive

# compound, target.desc, category
data = [
    ("COc1cc2nc(N3CCCC3)nc(NCCCCCN3CCCC3)c2cc1OC", "SKOV3", "Y"),
    ("CC(C)(O)/C=C/CC(C)(O)C1C(O)CC2(C)C3CCC4C(C)(C)C(=O)CCC4(C)C3CCC12C (centres undefined)", "SKOV3", "N"),
    ("C=CC(C)(O)CC[C@H]1C(=C)CCC2[C@](C)(C(=O)O)CCC[C@@]21C (some centres undefined)", "SKOV3", "N"),
    ("COC(=O)C1(C)CCC2(C(=O)O)CCC3(C)C(=CCC4C5(C)CC(O)C(OC6OCC(O)C(O)C6O)C(C)(CO)C5CCC43C)C2C1 (centres undefined)", "SKOV3", "N"),
    ("COc1cc2occc2c(O[C@@H]2O[C@H](CO)[C@@H](O)[C@H](O)[C@H]2O)c1CCC(=O)O", "SKOV3", "N"),
    ("CON(C)C(=O)[C@H](O)[C@H](Cc1ccccc1)NC(=O)c1cc2cc(Cl)ccc2[nH]1", "SKOV3", "N"),
    ("O=C(O)c1cccc(S(=O)(=O)N2CCc3ccccc3C2)c1", "SKOV3", "N"),
    ("COC(=O)CC(O)C1OC(c2ccccc2)C(O)C1O (centres undefined)", "SKOV3", "N"),
    ("N#Cc1ccc2[nH]cc(CCCCN3CCN(c4ccc5oc(C(N)=O)cc5c4)CC3)c2c1", "SKOV3", "N"),
]

----------
system: Es-2; test: Primary qHTS to identify gynecologic anti-cancer compounds using libraries of approved drugs and bioactive compounds (AID 1345084); conditions: Gynecologic cancer cell panel viability, ATPlite luminescence, 48 h; series mostly up to 57.5 µM; also: nearly all actives have a fitted effect of over 55% in size
Inconclusive results are not listed. The source made the active and inactive calls. Calls follow the shape of the dose curve; as a rule, active = well fitted cell-killing curve with a large enough effect; inconclusive = small, poorly fitted or top-dose-only effect, or effect the other way; inactive = flat fitted curve, though single readings scatter.
Labels: Yes for active, No for inactive

# compound, category
measured = [
    ("O=C(O)c1cccc(S(=O)(=O)N2CCc3ccccc3C2)c1", "No"),
    ("O=C(NCc1cccc(O)c1)c1cc2cc(F)ccc2[nH]1", "No"),
    ("COc1ccc(CN2C(=O)C(=O)c3cc(S(=O)(=O)N4CCC[C@H]4COc4cccnc4)ccc32)cc1", "No"),
    ("CC(C)C1=CC2C(CC[C@]2(C)O)[C@](C)(O)CC1 (stereo not given in full)", "No"),
    ("C/C=C/C(O)C1OC(=O)CC1Nc1ccc(C(=O)O)cc1 (stereo not given)", "No"),
    ("O=C1Nc2ccccc2C(O)(c2ccccc2)C1O (stereo not given)", "No"),
    ("COc1ccc(C2COc3cc(O)ccc3C2)c(O)c1 (stereo not given)", "No"),
    ("C[C@H](C(=O)NC1CCCC1)N(C(=O)Cn1nnc(-c2ccc3c(c2)OCO3)n1)C1CCCCC1", "No"),
    ("OC[C@H]1O[C@@H](OC[C@H]2O[C@@H](OC/C=C/c3ccccc3)[C@H](O)[C@@H](O)[C@@H]2O)[C@@H](O)[C@@H]1O", "No"),
    ("O=C(/C=C/c1cccc(S(=O)(=O)Nc2ccccc2)c1)NO", "Yes"),
]

----------
system: PA-1; experiment: Primary qHTS to identify gynecologic anti-cancer compounds using libraries of approved drugs and bioactive compounds (AID 1345084); conditions: Gynecologic cancer cell panel viability, ATPlite luminescence, 48 h; series mostly up to 57.5 µM; also: nearly all actives have a fitted effect of over 55% in size; as to activity change, negative = cytotoxicity: % is scaled to controls: 0 for no effect and ±100 for the full control effect
Records with an inconclusive call do not appear. The source made the active and inactive calls. Calls come from the whole dose curve; as a rule, active = well fitted cell-killing curve with a large enough effect; inconclusive = small, poorly fitted or top-dose-only effect, or effect the other way; inactive = flat fitted curve, though single readings scatter.
// values below are reported activity change, negative = cytotoxicity

# compound, activity change, negative = cytotoxicity
records = [
    ("C[C@@H]1O[C@@H](O[C@H]2[C@H](OC(=O)[C@]34CCC(C)(C)C[C@H]3C3=CCC5[C@@]6(C)C[C@H](O)[C@H](O[C@@H]7O[C@H](CO)[C@@H](O)[C@H](O)[C@H]7O)[C@@](C)(CO)C6[C@H](O)C[C@@]5(C)[C@]3(C)C[C@H]4O)OC[C@H](O)[C@@H]2O)[C@H](O)[C@H](O)[C@H]1O[C@@H]1OC[C@@H](O)[C@H](O[C@H]2OC[C@](O)(CO)[C@H]2O)[C@H]1O (some centres not stated)", "24.7% [at 6.55 µM] (inactive)"),
    ("CC(=O)N[C@H]1[C@H](O[C@H]2CC[C@@]3(C)C(CC[C@]4(C)C3CC=C3C5CC(C)(C)CC[C@]5(C(=O)O)[C@H](O)C[C@]34C)C2(C)C)O[C@H](CO[C@@H]2OC[C@H](O)[C@H](O)[C@H]2O[C@@H]2OC[C@@H](O)[C@H](O)[C@H]2O)[C@@H](O)[C@@H]1O (some centres not stated)", "3.95% [at 11.6 µM] (inactive)"),
    ("CC1OC(OCC2OC(OC3CCC4(C)C(CCC5(C)C4CC=C4C6CC(C)(C)CCC6(C(=O)OC6OC(CO)C(O)C(O)C6O)CCC45C)C3(C)CO)C(O)C(O)C2O)C(O)C(O)C1O (configuration not stated)", "-0.107% [at 11.6 µM] (inactive)"),
    ("C[C@@H]1CC[C@]2(C(=O)O[C@@H]3O[C@H](CO)[C@@H](O)[C@H](O)[C@H]3O)CC[C@]3(C)C(=CCC4[C@@]5(C)C[C@@H](O)[C@H](O)[C@@](C)(C(=O)O[C@H]6[C@H](O)C[C@@]7(C)C(CC[C@]8(C)C7CC=C7[C@H]9[C@](C(=O)O[C@@H]%10O[C@H](CO)[C@@H](O)[C@H](O)[C@H]%10O)(CC[C@@H](C)[C@@]9(C)O)CC[C@]78C)[C@@]6(CO)C(=O)O)C5CC[C@]43C)[C@@H]2[C@]1(C)O (some centres not stated)", "8.04% [at 6.55 µM] (inactive)"),
    ("C[C@H](N)C(=O)N[C@@H](Cc1ccc(O)cc1)C(=O)N1CCC[C@H]1C(=O)NCC(=O)N[C@@H](CCCCN)C(=O)N[C@@H](Cc1ccccc1)C(N)=O", "3.5% [at 11.6 µM] (inactive)"),
    ("CC1OC(OC2C(OC3C(O[C@H]4CC[C@@]5(C)C(CC[C@]6(C)C5C(=O)C=C5C7CC(C)(C)CC(O)[C@]7(C)CC[C@]56C)C4(C)C)OC(C(=O)O)C(O)C3O)OCC(O)C2O)C(O)C(O)C1O (some centres not stated)", "-3.12% [at 11.6 µM] (inactive)"),
    ("C[C@@H]1O[C@@H](O[C@H]2[C@@H](OC(=O)[C@]34CCC(C)(C)CC3C3=CCC5[C@@]6(C)C[C@H](O)[C@H](O[C@@H]7O[C@H](C(=O)O)[C@@H](O)[C@H](O)[C@H]7O)[C@@](C)(C(=O)O)C6CC[C@@]5(C)[C@]3(C)CC4)OC[C@H](O)[C@@H]2O)[C@H](O)[C@H](O)[C@H]1O[C@@H]1OC[C@@H](O)[C@H](O)[C@H]1O (some centres not stated)", "-35% [at 11.6 µM] (inactive)"),
]

----------
assay: Primary qHTS for inhibitors of nuclear receptor binding SET domain protein 2 (NSD2) in an isogenic RCH-ACV NSD2 p.E1099K mutant (9B) (AID 1645876); settings: RCH-ACV (leukaemia line) NSD2 E1099K (9B) viability, CellTiter-Glo, 72 h; series mostly up to 44.9 µM; also: nearly all actives have a fitted effect of over 70% in size
Inconclusive results are not listed. Calls of active or inactive are those of the source. The call rests on the fitted dose curve; in most records, active means well fitted inhibition curve with a large enough effect; inconclusive means small, poorly fitted or top-dose-only effect; inactive means flat fitted curve, though single readings scatter.
Labels: active, inactive

# compound, category
measured = [
    ("O=C(OC[C@@]1(O)CO[C@@H](O[C@H]2[C@H](Oc3ccc(O)cc3)O[C@H](CO)[C@@H](O)[C@@H]2O)[C@@H]1O)c1ccc(O)cc1", "inactive"),
    ("CCCNc1ccc2ncc(-c3ccc4[nH]ncc4c3)n2n1", "active"),
    ("CC(=O)OC1C(c2ccccc2)CCC(c2ccccc2)C1OC(C)=O (configuration not stated)", "inactive"),
    ("COc1cc(C)c(C(=O)Oc2cc(C)c(C(=O)Oc3cc(C)c(C(=O)NC(C)C(=O)O)c(O)c3)c(O[C@@H]3O[C@H](CO)[C@@H](O)[C@H](O)[C@H]3OC(C)=O)c2)c(OC)c1 (some centres not stated)", "inactive"),
    ("CN[C@H](CC(C)C)C(=O)N[C@H]1C(=O)N[C@@H](CC(N)=O)C(=O)N[C@H]2C(=O)N[C@H]3C(=O)N[C@H](C(=O)N[C@H](C(=O)O)c4cc(O)cc(O)c4-c4cc3ccc4O)[C@H](O[C@H]3C[C@](C)(N)[C@@H](O)[C@H](C)O3)c3ccc(c(Cl)c3)Oc3cc2cc(c3O[C@@H]2O[C@H](CO)[C@@H](O)[C@H](O)[C@H]2O[C@H]2C[C@](C)(NCc3ccc(-c4ccc(Cl)cc4)cc3)[C@@H](O)[C@H](C)O2)Oc2ccc(cc2Cl)[C@H]1O", "inactive"),
    ("COc1ccc2[nH]c3c(-c4cccc5ccccc45)nccc3c2c1", "active"),
    ("COc1ccc(CC2C(=O)NC(C)C(=O)N(C)C3Cc4ccc(cc4)Oc4cc(ccc4OC4OC(CO)C(O)C(O)C4O)CC(C(=O)NC(C)C(=O)NC(C)C(=O)N2C)N(C)C3=O)cc1 (configuration not stated)", "active"),
    ("C[C@@H]1C(=O)O[C@H]2C[C@]34[C@H]5C[C@@H](C(C)(C)C)[C@]36[C@@H](OC(=O)[C@H]6O)O[C@]4(C(=O)O5)[C@]21O", "inactive"),
    ("Cc1cc(C)cc(C(=O)NOCCCCCC(=O)NO)c1", "active"),
    ("COc1ccc2nc(S(=O)(=O)Cc3ncc(C)c(OC)c3C)[nH]c2c1", "inactive"),
    ("CC1=C(C(=O)O)/C(=C/CO[C@@H]2O[C@H](COC(=O)/C=C/c3ccc(O)cc3)[C@@H](O)[C@H](O)[C@H]2O)C(O)C1 (some centres not stated)", "inactive"),
    ("CC1(CCOC2OC(CO)C(O)C(O)C2O)CCC23OC2(C1)C(O)CC1C(C)(C(=O)O)CCCC13C (configuration not stated)", "inactive"),
    ("Cc1cc(NC(=O)Nc2ccc(F)c(F)c2)n(-c2ccccc2)n1", "inactive"),
    ("Cc1ccccc1-n1c([C@H](C)Nc2nc(N)nc3nc[nH]c23)nc2cccc(C)c2c1=O", "active"),
    ("CC[C@H](NC(=O)[C@H](CS(=O)(=O)CC1CC1)N[C@@H](c1ccc(F)cc1)C(F)(F)F)C(=O)C(=O)NC1CC1", "inactive"),
    ("O=C(CC1C(=O)Nc2ccccc21)OC[C@H]1O[C@@H](OCCc2ccc(O)cc2)[C@H](O)[C@@H](O)[C@@H]1O (some centres not stated)", "inactive"),
    ("NC(=O)c1cccc2cn(-c3ccc(C4CCCNC4)cc3)nc12 (configuration not stated)", "active"),
]

Where do these numbers come from? They come from PubChem BioAssay (NCATS).
